assayText: Average % total dose in urine samples of dogs (Table II)
Type: in vivo, dog
conditionSet: 30 min post injection, mean, 30 min
observationType: Average % Total Dose in Urine Samples

Task: What measured Average % Total Dose in Urine Samples goes with O=C(O)C1C[S][Tc-]23(=[O])[S]CC[N]2C(=O)C(=O)[N]13 (single isomer, unassigned) [XXXIB] ?
Result: 60.60 % total dose

Task: What measured Average % Total Dose in Urine Samples goes with O=C(O)C1C[S][Tc-]23(=[O])[S]CC[N]2C(=O)C(=O)[N]13 (single isomer, unassigned) [XXXIA] ?
Result: 33.63 % total dose

Task: What measured Average % Total Dose in Urine Samples goes with O=C(O)C1C[S][Tc-]23(=[O])[S]CC(=O)[N]2CC(=O)[N]13 (single isomer, unassigned) [XVIB] ?
Result: 62.55 % total dose

Task: What measured Average % Total Dose in Urine Samples goes with O=C(O)C1C[S][Tc-]23(=[O])[S]CC(=O)[N]2CC(=O)[N]13 (single isomer, unassigned) [XVIA] ?
Result: 63.20 % total dose
